- Test method notes: Brain Penetration Assays: Mouse Pharmacokinetics (plasma and brain levels after oral dose)
- Format: in vivo
- Particulars: male, CD-1, mouse, brain (free, unbound); mice, 1 hour post oral dose of 10 mg/kg
Measured parameter: concentration at 1 h

Input line: I am curious: what concentration at 1 h value has been reported for `CC1(C)CNC[C@@H](COc2nc(-c3cnn(C(C)(C)C)c3)cc3ncccc23)O1` ?
Output line: > 25 nM

Input line: Follow-up item: `Cn1ccc(-c2cc3ncccc3c(OC[C@@H]3CNCC(C)(C)O3)n2)c1`
Output line: ≤ 25 nM

Input line: Follow-up item: `CC(C)n1ccc(-c2cc3ncccc3c(O[C@H](C)[C@@H]3CNCCO3)n2)c1`
Output line: ≤ 10 nM

Input line: Follow-up item: `CC(C)n1cc(-c2cc(OC[C@@H]3CNCC(C)(C)O3)c3cccnc3c2)cn1`
Output line: ≤ 25 nM

Input line: Follow-up item: `CCn1ccc(-c2cc3ncccc3c(OC[C@@H]3CNCCCO3)n2)c1`
Output line: ≤ 10 nM

----------
Parameter EC50: see the listing below.
- Test target: Ba/F3-Syk cells (Homo sapiens)
- Construct: fused on or other part: Possible but unprinted fusion partner: TEL (ETV6), the usual partner for Ba/F3 lines transformed by Syk; Nothing on a partner is printed
- Test method notes: Ba/F3 Proliferation Assay, Ba/F3-Syk cells (Resazurin)
- Particulars: 48-hour incubation

Previously resolved entries follow.
[
  {
    "Compound": "Cc1ccnc2cc(-c3cnn(C(C)(C)C)c3)nc(OC[C@@H]3CNCC(C)(C)O3)c12 (stereo in doubt)",
    "EC50": "6.1 nM"
  },
  {
    "Compound": "CC1(C)CNC[C@@H](COc2cc(-c3ccn(C4CC4(F)F)c3)cc3ncccc23)O1 (stereo partly shown)",
    "EC50": "19.3 nM"
  },
  {
    "Compound": "CC(C)n1ccc(-c2cc3ncccc3c(OC[C@@H]3CNCC4(CC4)O3)n2)c1",
    "EC50": "11.2 nM"
  }
]

Input line: I am curious: what EC50 value has been reported for `CC(C)n1cc(-c2cc3ncccc3c(OC[C@@H]3CNCC4(CCC4)O3)n2)cn1` ?
Output line: 32.9 nM

----------
- Test method notes: Brain Penetration Assays: Mouse Pharmacokinetics (plasma and brain levels after oral dose)
- Type: in vivo
- Particulars: male, CD-1, mouse, brain (free, unbound); mice, 1 hour post oral dose of 10 mg/kg
Measured parameter: concentration at 1 h

[
  {
    "Compound string": "CCn1ccc(-c2cc3ncccc3c(OC[C@@H]3CNCC(C)(C)O3)n2)c1",
    "concentration at 1 h": "> 25 nM"
  }
]

Input line: I am curious: what concentration at 1 h value has been reported for `CC1(C)CNC[C@@H](COc2cc(-c3ccn(C4COC4)c3)cc3ncccc23)O1` ?
Output line: ≤ 10 nM

Input line: Follow-up item: `C[C@@H](Oc1nc(-c2ccn(C)c2)cc2ncccc12)[C@@H]1CNCCO1`
Output line: ≤ 10 nM

Input line: Follow-up item: `Cn1ccc(-c2cc3ncccc3c(OC[C@@H]3CNCCO3)n2)c1`
Output line: > 25 nM

----------
- Test system: Ba/F3-WT (wild type) cells
- Test method notes: Ba/F3 Proliferation Assay, Ba/F3-WT (wild type) cells with mIL-3 (Resazurin)
- Type: cell-based
- Particulars: Ba/F3-WT cells +mIL-3, 48-hour incubation
Rule: measured EC50 below 0.6 µM gets yes (1); anything equal to or greater than 0.6 µM gets no (0).

[
  {
    "Compound": "CC(C)n1ccc(-c2cc(O[C@H](C)[C@@H]3CNCCO3)c3nccnc3c2)c1 [Compound 8.13]",
    "Classification": "yes (1)"
  },
  {
    "Compound": "FC(F)Cn1ccc(-c2cc(OC[C@@H]3CNCCO3)c3cccnc3c2)c1 [Compound 7.2]",
    "Classification": "no (0)"
  },
  {
    "Compound": "CC(C)(C)n1cc(-c2cc3ncccc3c(OC[C@H]3OC[C@@H]4C[C@H]3N4)n2)cn1 (relative stereo) [Compound 2.106]",
    "Classification": "yes (1)"
  },
  {
    "Compound": "CC(C)(C)n1cc(-c2cc3ncccc3c(OC[C@H]3O[C@H]4CCN[C@@H]3C4)n2)cn1 (single isomer, unassigned) [Compound 13.12]",
    "Classification": "no (0)"
  },
  {
    "Compound": "CC(C)(C)n1cc(-c2cc3ncccc3c(OC[C@H]3OC[C@@H]4C[C@H]3N4)n2)cn1 (relative stereo) [Compound 2.97]",
    "Classification": "no (0)"
  }
]

Input line: Take the compound COCCn1ccc(-c2cc(OC[C@@H]3CNCCO3)c3nccnc3c2)c1 [Compound 8.7] and say whether its EC50 is less than 0.6 µM.
Output line: no (0)

----------
- Test target: Ba/F3-Syk cells (Homo sapiens, UniProt P43405)
- Construct: fused on or other part: Possible but unprinted fusion partner: TEL (ETV6), the usual partner for Ba/F3 lines transformed by Syk; Nothing on a partner is printed
- Test method notes: Ba/F3 Proliferation Assay, Ba/F3-Syk cells (Resazurin)
- Particulars: 48-hour incubation
Measured parameter: pEC50
When answering, recall that pEC50 equals minus log10 of the concentration in mol/L, and write that number alone.

[
  {
    "Compound": "CC(C)n1ccc(-c2cc3ncccc3c(OC[C@@H]3CNCC(C)(C)O3)n2)c1",
    "pEC50": 7.94
  },
  {
    "Compound": "CC(F)(F)Cn1ccc(-c2cc3ncccc3c(OC[C@@H]3CNCCO3)n2)c1",
    "pEC50": 7.83
  },
  {
    "Compound": "C[C@H]1CNC[C@@H](COc2nc(-c3cnn(C)c3)cc3ncccc23)O1 (relative stereo) [Compound 2.24]",
    "pEC50": 6.87
  },
  {
    "Compound": "Cn1cc(-c2cc3ncccc3c(OC[C@@H]3CNCC4(CCC4)O3)n2)cn1",
    "pEC50": 7.36
  },
  {
    "Compound": "C[C@@H](Oc1cc(-c2ccn(C)c2)cc2ncccc12)[C@@H]1CNCCO1",
    "pEC50": 6.92
  },
  {
    "Compound": "CCn1cc(-c2cc3ncccc3c(OC[C@@H]3CNCCO3)n2)cn1",
    "pEC50": 7.24
  },
  {
    "Compound": "COCCn1ccc(-c2cc3ncccc3c(OC[C@@H]3CNCC(C)(C)O3)n2)c1",
    "pEC50": 7.38
  },
  {
    "Compound": "CC(C)n1ccc(-c2cc3ncccc3c(OC[C@@H]3CNCCCO3)n2)c1",
    "pEC50": 7.79
  }
]

--- query ---
Input line: I am curious: what pEC50 value has been reported for `C[C@@H]1CNC[C@@H](COc2nc(-c3ccn(C)c3)cc3ncccc23)O1` ?
Output line: 7.37

----------
- Test method notes: Brain Penetration Assays: Mouse Pharmacokinetics (plasma and brain levels after oral dose)
- Assay type: in vivo
- Particulars: male, CD-1, mouse, brain / plasma (unbound); mice, 1 hour post oral dose of 10 mg/kg; read-out: Kpu,u (ratio of unbound brain levels to unbound plasma levels)
Parameter Kp at 1 h: see the listing below.

[
  {
    "Compound string": "CC(C)n1ccc(-c2cc3ncccc3c(OC[C@@H]3CNCCO3)n2)c1",
    "Kp at 1 h": "0.1 to 0.2"
  },
  {
    "Compound string": "CCn1ccc(-c2cc3ncccc3c(OC[C@@H]3CNCCCO3)n2)c1",
    "Kp at 1 h": "0.1 to 0.2"
  },
  {
    "Compound string": "CC1(C)CNC[C@@H](COc2cc(-c3ccn(C4COC4)c3)cc3ncccc23)O1",
    "Kp at 1 h": "0.2 to 0.3"
  }
]

Input line: I am curious: what Kp at 1 h value has been reported for `Cn1ccc(-c2cc(OC[C@@H]3CNCCO3)c3cccnc3c2)c1` ?
Output line: 0.1 to 0.2

Input line: Follow-up item: `CCn1ccc(-c2cc3ncccc3c(OC[C@@H]3CNCC(C)(C)O3)n2)c1`
Output line: 0.1 to 0.2

Input line: Follow-up item: `Cn1ccc(-c2cc(OC[C@@H]3CNCC(C)(C)O3)c3cccnc3c2)c1`
Output line: 0.2 to 0.3

Input line: Follow-up item: `Cn1cc(-c2cc3ncccc3c(OC[C@@H]3CNCC4(CCC4)O3)n2)cn1`
Output line: 0.05 to 0.1

Input line: Follow-up item: `C[C@@H](Oc1nc(-c2cnn(C(C)(C)C)c2)cc2ncccc12)[C@@H]1CNCCO1`
Output line: 0.1 to 0.2

----------
- Test target: Ba/F3-Syk cells (Homo sapiens, UniProt P43405)
- Construct: fused on or other part: Possible but unprinted fusion partner: TEL (ETV6), the usual partner for Ba/F3 lines transformed by Syk; Nothing on a partner is printed
- Test method notes: Ba/F3 Proliferation Assay, Ba/F3-Syk cells (Resazurin)
- Particulars: 48-hour incubation
Parameter pEC50: see the listing below.
When answering, recall that pEC50 equals minus log10 of the concentration in mol/L, and write that number alone.

[
  {
    "Compound": "CC[C@H](C)n1cc(-c2cc3ncccc3c(OC[C@@H]3CNCC(C)(C)O3)n2)cn1 [Compound 6.35]",
    "pEC50": 7.63
  }
]

Input line: I am curious: what pEC50 value has been reported for CC(C)n1cc(-c2cc(OC[C@@H]3CNCC4(CC4)O3)c3cccnc3c2)cn1 [Compound 3.21] ?
Output line: 7.88

Input line: Follow-up item: CC(C)n1ccc(-c2cc(OC[C@@H]3CNC[C@@H](C)O3)c3nccnc3c2)c1 [Compound 8.23]
Output line: 8.57

Input line: Follow-up item: CC(C)(C)c1ccc(-c2cc(OC[C@@H]3CNCCO3)c3cccnc3c2)s1 [Compound 14.5]
Output line: 6.37
